System: KM12 colon
PROTOCOL_NOTES: NCI-60 one-dose screen, 48 h (100 = growth as untreated, 0 = no growth, -100 = all killed)
DETAILS: 10 µM unless noted
About 83,000 compounds went through this panel and 20% of them were active in at least one assay; those are over-represented in the sample as a whole. Activity calls are given as the source filed them. The calls were made as follows: active = growth percent below 10; inactive = the rest.
Would you kindly list growth for each of these compounds?

### Prompt Suppose we examine the compound CCOC(=O)c1c(C)nc2c(c1N)CC(=O)N2Cc1ccc(F)cc1 ; what growth value has been reported?
### Response 97.7% (inactive)

### Prompt Suppose we examine the compound Cc1c(C(=O)NCCN2CCOCC2)cn2ncnc(Oc3ccc(NC(=O)Nc4ccc(Cl)c(C(F)(F)F)c4)cc3)c12 ; what growth value has been reported?
### Response 19.6% (inactive)

### Prompt Suppose we examine the compound COc1ccc2c(c1OC)C(=O)O[C@H]2[C@H]1c2c(cc3c(c2OC)OCO3)CCN1C ; what growth value has been reported?
### Response 95.2% (inactive)

### Prompt Suppose we examine the compound COc1cc(/C=C/C(=O)/C=C/c2cc(OC)c3c(c2OC)OCO3)c(OC)c2c1OCO2 ; what growth value has been reported?
### Response 37% (inactive)

### Prompt Suppose we examine the compound c1ccc(Cc2nn3cc(-c4ccccc4)nc3s2)cc1 ; what growth value has been reported?
### Response 96.5% (inactive)

### Prompt Suppose we examine the compound Cc1ccc(-c2nc(SCC(=O)Nc3nc(-c4ccc(Cl)cc4)cs3)[nH]c(=O)c2C#N)cc1 ; what growth value has been reported?
### Response 96.1% (inactive)

### Prompt Suppose we examine the compound BrCCCc1n(Cc2ccc3ccccc3c2)c2ccccc2[n+]1Cc1ccc2ccccc2c1 ; what growth value has been reported?
### Response -89.7% (active)

### Prompt Suppose we examine the compound Nc1ccc(Sc2ccc([N+](=O)[O-])c3nonc23)cc1 ; what growth value has been reported?
### Response 96.2% (inactive)

### Prompt Suppose we examine the compound CCCCn1c(-c2ccc(C(=O)O/N=C(\N)c3ccc(OC)cc3)cc2)nc(-c2ccccc2)c1-c1ccccc1 ; what growth value has been reported?
### Response 9.02% (active)

###

Tested on: CAKI-1 renal
PROTOCOL_NOTES: NCI-60 one-dose screen, 48 h
DETAILS: 10 µM unless noted
About 83,000 compounds went through this panel and 20% of them were active in at least one assay; those are over-represented in the sample as a whole. Active and inactive are the calls of the source. The calls were made as follows: active = growth percent below 10; inactive = the rest.
Mark one answer only. Choices: active, inactive

### Prompt For this compound, state the assay outcome: Clc1ccc(C(/C=C/c2sc(Cl)nc2Cl)=N/Nc2cc(Cl)cc(Cl)c2)cc1
### Response inactive

### Prompt For this compound, state the assay outcome: N#CC1=C(N)Oc2c(sc3c(Br)cccc23)C1c1ccc([N+](=O)[O-])cc1 (centres undefined)
### Response inactive

### Prompt For this compound, state the assay outcome: c1cc(-c2nnc(SSc3ncnc4nc[nH]c34)o2)ccn1
### Response active

### Prompt For this compound, state the assay outcome: CCCCCCCNC(=O)CCCNc1ncnc2c1ncn2-c1cccc(C(C)O)c1 (centres undefined)
### Response inactive

### Prompt For this compound, state the assay outcome: COc1ccc(-c2nc3sc(-c4ccc(Cl)cc4)cn3n2)cc1
### Response active

### Prompt For this compound, state the assay outcome: COc1ccc2c(c1OC)C(=O)O[C@H]2[C@H]1c2c(cc3c(c2OC)OCO3)CCN1C
### Response inactive

### Prompt For this compound, state the assay outcome: COC(=O)[C@H](C)NC(=O)NC(=O)NC(=O)CI
### Response active

### Prompt For this compound, state the assay outcome: COc1ccc(C(=O)n2nc(-c3ccccc3)nc2N)cc1OC
### Response inactive

### Prompt For this compound, state the assay outcome: CC(=O)O.CN1[CH-]N(Cc2ccc(C#N)cc2)c2ccccc21.[Ag+]
### Response inactive

### Prompt For this compound, state the assay outcome: COc1ccc(C(Cc2ccccc2)NCCN2CCOCC2)cc1 (centres undefined)
### Response inactive

### Prompt For this compound, state the assay outcome: COc1cc2cc(Oc3ccc(NC(=O)Nc4ccc(F)c(C(F)(F)F)c4)cc3)c(C)nc2cc1OCCN1CCOCC1
### Response inactive

### Prompt For this compound, state the assay outcome: C/C(=N/NC(N)=S)c1sc(Nc2cccc(Cl)c2)nc1C
### Response inactive

### Prompt For this compound, state the assay outcome: C=C(C)[C@@H]1CC[C@]2(N=C=O)CC[C@]3(C)[C@H](CC[C@@H]4[C@@]5(C)Cc6c([nH]c7ccccc67)C(C)(C)[C@@H]5CC[C@]43C)[C@@H]12
### Response inactive

### Prompt For this compound, state the assay outcome: N#Cc1c(-c2ccccc2)nc(SCC(=O)Nc2nc(-c3ccc(Cl)cc3)cs2)[nH]c1=O
### Response inactive

### Prompt For this compound, state the assay outcome: CCCCCCn1c(-c2ccc(C(=O)O/N=C(\N)c3ccc4ccccc4c3)cc2)nc(-c2ccccc2)c1-c1ccccc1
### Response inactive

### Prompt For this compound, state the assay outcome: COc1cc(/C=C/C(=O)/C=C/c2cc(OC)c3c(c2OC)OCO3)c(OC)c2c1OCO2
### Response inactive

### Prompt For this compound, state the assay outcome: O=[N+]([O-])c1ccccc1NCSc1ccc(Cl)cc1
### Response inactive

### Prompt For this compound, state the assay outcome: CC(=O)N1CCN(c2ccc(OCC3CO[C@](Cn4ccnc4)(c4ccc(Cl)cc4Cl)O3)cc2)CC1 (some centres undefined)
### Response inactive

### Prompt For this compound, state the assay outcome: COc1ccc(N)c(N)c1
### Response inactive

### Prompt For this compound, state the assay outcome: COc1ccc(-c2[nH]ncc2-c2cc3c(c(OC)c2)OCC(=O)N3)cc1
### Response inactive

### Prompt For this compound, state the assay outcome: C#Cc1cccc(NC(=O)c2ccc(NC(=O)C=C)cc2)c1
### Response inactive

### Prompt For this compound, state the assay outcome: Cc1nn(-c2ccccc2)c2c1N=c1s/c(=C\c3ccc(C(F)(F)F)cc3)c(=O)n1CN2
### Response inactive

### Prompt For this compound, state the assay outcome: COc1ccc(N2C(=O)C(Oc3ccccc3)C2c2ccc(C)cc2)cc1 (centres undefined)
### Response inactive

### Prompt For this compound, state the assay outcome: O=c1c2cc(F)ccc2sc2c(NCCCNCCO)nc3ccccc3c12
### Response active

### Prompt For this compound, state the assay outcome: COc1cc(CNS(=O)(=O)c2ccc(C)cc2)ccc1OCc1cn(-c2ccccc2)nn1
### Response inactive

### Prompt For this compound, state the assay outcome: CCN1C(=O)N(CC)C2Nn3c(s/c(=C4\C(=O)N(CCC(C)C)c5ccccc54)c3=O)=NC21 (centres undefined)
### Response inactive

### Prompt For this compound, state the assay outcome: COc1ccc(/C=C(/C#N)n2nnc3cccc(F)c32)cc1
### Response inactive

### Prompt For this compound, state the assay outcome: O=C(Cc1ccc2c(c1)OCCO2)Nc1nc2ccc(F)cc2s1
### Response inactive

### Prompt For this compound, state the assay outcome: CN1C(=O)CNC(=O)[C@H](NC(=O)c2nc3ccccc3cc2O)CSSC[C@H]1C(=O)NCCc1nc2ccccc2cc1O
### Response inactive

### Prompt For this compound, state the assay outcome: Cc1cccc(NC2=C(Cl)C(=O)c3nc(C)ccc3C2=O)c1
### Response active

### Prompt For this compound, state the assay outcome: O=C(/C=C/c1ccc([N+](=O)[O-])o1)NNC(=O)c1cc2ccccc2cc1O
### Response inactive

### Prompt For this compound, state the assay outcome: CNC(=O)c1cc(-n2ccc3cc(NC(=O)c4ccc(N5CCOCC5)c(C(F)(F)F)c4)ccc32)ccn1
### Response inactive

### Prompt For this compound, state the assay outcome: CCN1C(=O)N(CC)C2Nn3c(s/c(=C4\C(=O)N(CC(C)C)c5ccccc54)c3=O)=NC21 (centres undefined)
### Response inactive

### Prompt For this compound, state the assay outcome: O=c1c2cc(F)ccc2sc2c(NCCN3CCOCC3)nc3ccccc3c12
### Response inactive

### Prompt For this compound, state the assay outcome: COc1ccc(S(=O)(=O)n2cc(C3OC(c4cc(OC)c(OC)c(OC)c4)=NN3C(C)=O)c3ccccc32)cc1OC (centres undefined)
### Response inactive

### Prompt For this compound, state the assay outcome: O=S(=O)(NCCCNc1cc(-c2c(-c3cccc(O)c3)nc3sccn23)ccn1)c1cccc2ccccc12
### Response inactive

### Prompt For this compound, state the assay outcome: COC(=O)/C=C1\S/C(=N\Nc2ccc([N+](=O)[O-])cc2[N+](=O)[O-])N(C2CCCCC2)C1=O
### Response inactive

### Prompt For this compound, state the assay outcome: CN1CCN(c2ccc(-c3ccc4ncc(C#N)c(Nc5ccc(F)c(Cl)c5)c4c3)cc2)CC1
### Response inactive

### Prompt For this compound, state the assay outcome: Cc1cccc(NCc2cn(-c3ccc(C(=O)O)cc3)nc2-c2ccc(C(=O)O)cc2)n1
### Response inactive
